The origin of these recorded values is patent US20230118459A1.

Test system: virus (not named) in Huh7 cells
Assay: Cytopathic effect assay
Conditions: Huh-7, 168 h
pEC50: −log10 of the molar value.
Value Kind: pEC50

1) CCCCCCCCCCCCCC(=O)NCCC[N+](C)(C)Cc1ccc(C#N)cc1 4.78
